# MEASUREMENT_TARGET: NFIL3 (Homo sapiens)
# Construct: made in house
# Sequence (Q16649 73-136 limits assumed): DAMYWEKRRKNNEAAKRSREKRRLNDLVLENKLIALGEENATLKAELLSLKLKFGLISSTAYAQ
# METHOD_DESCRIPTION: Direct-binding FRET assay
# APPLIED_CONDITIONS: 23°C; C-terminal rhodamine design; mean or single; read-out: Kd
# Experimental: The direct binding assay was performed manually in 384-well plates and is similar to a previously described assay. Wells were filled with 20 μL of 1 mM TCEP-HCl. […] Briefly, the Kd of the designed peptide homodimer was experimentally determined and used with previously determined target homodimer Kd values to determine the heterodimer Kd. […] A minimum 15% change in the donor fluorescence upon titrating the acceptor peptide from 0 to 1000 nM was required for a fit to be attempted. […]
Where no end group is shown, it is not given here.
Consider the following sequences; for each one, report its Kd.

SEQ	Kd
EREAQLENRVAHLKEKNQELKAQNLHLKEALSEAQNRNQELKNDA [XBP1-d1]	> 1000 nM

// next item, Kd requested
Tested on NFIL3 (Homo sapiens), the item KRIAYLRQRIAELRNENHVLESRIQRMEKEKDALQQDRDHLEYEL [ATF5-d1] showed Kd equal to > 1000 nM

---

# MEASUREMENT_TARGET: ATF5 (Homo sapiens)
# Construct: made in house
# Sequence (Q9Y2D1 208-271 limits assumed): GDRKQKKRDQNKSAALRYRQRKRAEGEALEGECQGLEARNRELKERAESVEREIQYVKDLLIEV
# METHOD_DESCRIPTION: Direct-binding FRET assay
# APPLIED_CONDITIONS: Kd, 4°C; C-terminal fluorescein design as donor, TAMRA target titrated
Where no end group is shown, it is not given here.
METRIC: Kd

Kd reported for this sequence SIAATLEKEEANLEKMNKKLAAEIESLLKEKDKLESVLNYHE [JUN-d1] : > 1 µM

---

# MEASUREMENT_TARGET: CREB3 (Homo sapiens)
# Construct: made in house
# METHOD_DESCRIPTION: Direct-binding FRET assay
# APPLIED_CONDITIONS: 23°C; N-terminal rhodamine design; mean or single
Where no end group is shown, it is not given here.
METRIC: Kd

Kd reported for this sequence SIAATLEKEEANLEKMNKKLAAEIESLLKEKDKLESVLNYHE [JUN-d1] : > 1000 nM

---

# MEASUREMENT_TARGET: MAFG (Homo sapiens)
# Sequence (O15525 51-114 limits assumed): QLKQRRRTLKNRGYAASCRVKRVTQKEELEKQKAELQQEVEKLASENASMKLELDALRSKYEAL
# METHOD_DESCRIPTION: Direct-binding FRET assay
# Set-up: made in house
pKd: −log10 of the molar value. Where no end group is shown, it is not given here.
METRIC: pKd

pKd reported for this sequence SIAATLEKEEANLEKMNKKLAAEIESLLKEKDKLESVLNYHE [JUN-d1] : < 6.00

---

# MEASUREMENT_TARGET: CREB3 (Homo sapiens)
# Construct: made in house
# Sequence (O43889 150-213 limits assumed): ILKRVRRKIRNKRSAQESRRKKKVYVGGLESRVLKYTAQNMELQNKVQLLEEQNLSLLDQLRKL
# METHOD_DESCRIPTION: Direct-binding FRET assay
# APPLIED_CONDITIONS: 4°C; C-terminal rhodamine design; mean or single
pKd: −log10 of the molar value. Where no end group is shown, it is not given here.
METRIC: pKd

pKd reported for this sequence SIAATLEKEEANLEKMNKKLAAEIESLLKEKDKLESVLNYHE [JUN-d1] : < 6.00

---

# MEASUREMENT_TARGET: NFE2L3 (Homo sapiens, UniProt Q9Y4A8)
# Construct: made in house
# Sequence (Q9Y4A8 578-641 limits assumed): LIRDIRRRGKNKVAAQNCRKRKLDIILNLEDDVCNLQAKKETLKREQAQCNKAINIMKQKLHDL
# METHOD_DESCRIPTION: Direct-binding FRET assay
# APPLIED_CONDITIONS: 37°C; C-terminal rhodamine design; repeat 1; read-out: Kd
Where no end group is shown, it is not given here.
METRIC: Kd

Kd reported for this sequence NQIKTLRTRLSKLRKDNLQLEKDIANLERKAKDLRAEKEQLEYEL [ATF4-d1] : > 5 µM
